Each recorded value in this set is attributed to patent US9529005B2.

- Protocol details: Liposome association assay
- Type: binding
- Run conditions: individual GST-mce domains, 1-80 mol % PA, densitometry; relative to high binding mce domains
Assay readout: decrease of binding to PA-containing liposomes (apparent affinity)

Molecule	Obs value
mce 2: GST-tagged individual mce domain 2 of V. parahaemolyticus MAM7 (SEQ ID NO: 6) (protein, listed as Vibrio parahaemolyticus, GST tag) QGLNIKLKSRDLGGVSIGSQIVYKKIPIGAVYSYQLDEDAKSITIQANIQEQYRHIINDRSRFWNVSGIGASIGFEGVDVRLESMSALLGG	bound equally well
mce 1: GST-tagged individual mce domain 1 of V. parahaemolyticus MAM7 (SEQ ID NO: 5) (protein, listed as Vibrio parahaemolyticus, GST tag) AGQRVQIYFSDAAGLVAGRTTIRYQGLEVGMVRDINLSEDLGSIYVDADIYPEATKLLNDKTRFWLVKPTASLTGVSGLDALVSGNYISIQPG	bound equally well
